B1: Hairpin Ribozyme (parent)
chain: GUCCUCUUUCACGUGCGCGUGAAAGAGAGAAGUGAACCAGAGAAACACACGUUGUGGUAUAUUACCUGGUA

# Variants of: B1
# PROTOCOL_SUMMARY: self-cleavage, relative activity (ratio to wild type); higher = more cleavage; co-transcriptional
MEASURE: self-cleavage
I only need the number, thanks.

// solved cases for self-cleavage follow
VARIANT_DESIGNATION | self-cleavage
G34C G42U | 1.19
U7G A39U | 0.421
C12U C38G | 0.235

## Input Param item = A23U U55A ; retrieve measured self-cleavage.
## Output 0.255

## Input Suppose we examine the variant C16A G32A ; what self-cleavage value has been reported?
## Output 0.121

## Input Please give the measured self-cleavage for this variant: A45U G56U
## Output 0.208
